# Measurement target: T1, huMICB*005 alpha 3-his (human)
# T1 construct: whole construct entry: GS, alpha 3 domain, GNS, His8; also called MICB005.His; MICB*005 alpha3 construct
# T1 chain: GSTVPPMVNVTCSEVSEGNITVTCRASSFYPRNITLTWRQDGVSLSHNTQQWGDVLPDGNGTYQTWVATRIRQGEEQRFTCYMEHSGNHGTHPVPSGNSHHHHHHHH
# Experiment: SPR, Biacore 8K, antibody on Protein A chip
The following binders are listed with their measured Kd values.
Express your answer in nM, writing the number without its unit.

- 15F11v3 (antibody, IgG1, V domains shown, humanized variant of 15F11) VH: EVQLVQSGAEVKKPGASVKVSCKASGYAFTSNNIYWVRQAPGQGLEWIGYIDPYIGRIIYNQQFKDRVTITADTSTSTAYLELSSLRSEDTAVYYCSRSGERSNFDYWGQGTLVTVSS VL: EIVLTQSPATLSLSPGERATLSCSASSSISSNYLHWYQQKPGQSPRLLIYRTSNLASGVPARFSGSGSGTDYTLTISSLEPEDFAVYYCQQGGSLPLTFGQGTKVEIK: 14.1

Please examine the following record next.
Sure, the documented Kd for 1D5v29 (antibody, IgG1, V domains shown, humanized variant of 1D5) VH: EIQLVQSGAEVKKPGASVKVSCKASGYAFTSQNIYWVRQAPGQGLEWIGYIEPYNVVPVYNPKFKGRATLTVDKSTSTAYLELSSLRSEDTAVYYCARSGSSNFDYWGQGTLVTVSS VL: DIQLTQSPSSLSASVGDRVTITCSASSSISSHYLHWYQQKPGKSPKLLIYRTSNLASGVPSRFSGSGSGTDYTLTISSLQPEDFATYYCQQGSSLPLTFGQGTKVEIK is 3.86
